# Test system: AMP-activated protein kinase (AMPK)
# experimentSummary: ADP Quest assay for AMPK activators
# Assay type: biochemical
# Set-up: key: fold AMPK activation at 30 μM activator vs none
# conditionDetails: fold of AMPK activation to phosphorylate SAMS peptide without and with an activator at the concentration of 30 μM
Please respond with reported E30 for every item in the list.
Please state the value as a number alone, without comment.

[in] Dear colleague, I am looking for the recorded E30 of the following compound: CC(C)(Nc1cccc(C2CC(C)(C)c3cc(C#N)ccc3N2)c1)C(=O)O (stereo not drawn)
[out] 2.88

[in] Field request: E30 | item: Cc1cc(C#N)cc2c1NC(c1cccc(NC3(C(=O)O)CC3)c1)CC2(C)C (stereo not drawn)
[out] 1.68

[in] Which value of E30 has been reported for CC(C)(Nc1cccc(C2CC(C)(C)c3cc(Cl)cc(C(=O)O)c3N2)c1)C(=O)O (stereo not drawn) in the records?
[out] 2.27

Numbers sourced from patent US8546427B2.
